Data credit: PubChem BioAssay

inhibition values for the compounds below.
Molecular target: Dual specificity protein phosphatase 6 (Homo sapiens) (UniProt Q16828)
Sequence (Q16828 whole entry, looked up): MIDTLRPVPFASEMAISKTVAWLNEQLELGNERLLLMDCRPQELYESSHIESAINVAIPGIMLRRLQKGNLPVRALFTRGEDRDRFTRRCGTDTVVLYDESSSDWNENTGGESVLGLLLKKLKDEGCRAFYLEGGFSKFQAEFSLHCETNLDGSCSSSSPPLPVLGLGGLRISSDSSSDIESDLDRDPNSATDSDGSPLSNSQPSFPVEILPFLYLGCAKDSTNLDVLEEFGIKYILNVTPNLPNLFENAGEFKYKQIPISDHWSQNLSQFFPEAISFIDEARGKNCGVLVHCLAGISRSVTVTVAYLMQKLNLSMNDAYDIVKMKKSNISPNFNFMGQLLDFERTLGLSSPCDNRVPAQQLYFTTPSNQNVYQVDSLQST
Assay: DUSP6 inhibitors restoring Erk phosphorylation by chemical complementation, primary imaging in DUSP6-transfected HeLa (AID 609);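 note: phospho-Erk level distribution per well compared with pooled transfected vehicle control wells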
Conditions: HeLa MKP-3 transfected, phospho-Erk imaging KS statistic; at 10 µM; hits give high values; cells stimulated with TPA for 15 min
PROPERTY MEASURED: inhibition (%)

                                    compound  result_value
 0  CSCCC(CO)NC(=O)OCc1ccccc1 (stereo unspecified)          3.97
 1           CC(C)Oc1ccc(C(=O)CCN2CCCCC2)cc1         -10.6
 2             CC(C)(C)NCc1cc2ccccc2[nH]c1=O          16.8
 3  CCN=C1SC(C(=O)Nc2ccc(Cl)c(Cl)c2)CC(=O)N1CC (stereo unspecified)          7.42
 4  CCC12CN3CC(CC)(CN(C1)C3c1c(O)ccc3ccccc13)C2=O (stereo unspecified)          9.82
 5  N#C/C(=C\c1ccc(O)c(O)c1)C(=O)NCCCc1ccccc1          16.8
 6  Cc1ccc(-c2ccccc2NC(=O)C2C3C=CC(C3)C2C(=O)O)o1 (stereo unspecified)            14
 7         COc1ccccc1-c1nn2c(-c3ccco3)nnc2s1         -2.47
 8  CCCc1cc(-c2nc(N)ncc2-c2ccc3c(c2)OCCCO3)c(O)cc1OC          11.9
 9  CCOC(=O)CSC1=C(C#N)C(c2ccc3c(c2)OCO3)CC(=O)N1 (stereo unspecified)          3.66
10  CC(=O)Nc1n[nH]c(S(=O)(=O)Cc2ccc(Cl)cc2Cl)n1         -7.01
11        Cc1nc(/N=C(\N)Nc2ccccc2)nc2ccccc12        -0.624
12          CN(C)CCCN1c2ccccc2Sc2ccc(Cl)cc21        -0.828
13        Fc1ccccc1-c1nc(N2CCCCC2)c2ccccc2n1          6.04
14                          CC(=O)Nc1ccccc1O          7.39
15     Cc1nc2c(=O)n(C)c(=O)[nH]c2n1Cc1ccccc1          -4.7
16  COC(=O)C(NC(C)=O)(Nc1nc2ccc(S(C)(=O)=O)cc2s1)C(F)(F)F (stereo unspecified)          7.42
17  Cc1cccc(N2C(=O)CC(N3CCN(Cc4ccc(Cl)cc4)CC3)C2=O)c1 (stereo unspecified)          3.56
18  CCOC(=O)CCc1c(C)c(C#N)c2nc3ccccc3n2c1-n1ccnc1          25.8
19  C[C@H](CCC(=O)O)[C@H]1CC[C@H]2[C@@H]3C(=O)C[C@@H]4CC(=O)CC[C@]4(C)[C@H]3CC(=O)[C@]12C          3.45
20  CN1C2C=C3C(C#N)=C(N)C(C#N)(C#N)[C@@H](c4ccc(Cl)cc4)[C@@H]3C1CC2 (stereo partly specified)         -2.47
21  COc1cc(C2C(C#N)=C(N)Oc3cc(C)n(CCc4ccccc4)c(=O)c32)cc2c1OCO2 (stereo unspecified)          11.4
22  Cc1cccc(C)c1NC(=O)CSCC(=O)c1ccc(O)c(O)c1          24.7
23  O=C(O)C1CC=CCC1C(=O)N1CCN(c2nc(-c3ccccc3)c3ccccc3n2)CC1 (stereo unspecified)         -5.26
24                   CC[N+](C)(C)c1cccc(O)c1          3.45
25  COc1ccc(Cn2c(=O)c3c(nc(NCCO)n3C)n(C)c2=O)cc1        -0.624
26            CCCSc1ccc2nc(NC(=O)OC)[nH]c2c1         -5.24
27          CC(=O)OC12CC3CC(C1)C(=NO)C(C3)C2          33.7
28              Cc1nnc(SCc2nc3ccccc3[nH]2)s1         -5.89
29  C[C@]12CC[C@@H]3c4ccc(O[C@@H]5O[C@H](C(=O)O)[C@@H](O)[C@H](O)[C@H]5O)cc4CC[C@H]3[C@@H]1C[C@@H](O)[C@@H]2O          1.48
30    COc1ccc(-c2cc3nc4n(c(=O)c3s2)CCOC4)cc1         -5.26
31  CCOC(=O)c1sc2c(c1C)c(=O)c(C(=O)OCC)cn2CC          7.01
32  COc1ccc(C(=O)Nc2cccnc2)cc1C(=O)Nc1cccnc1          23.4
33              O=C(CCN1CCCCC1)Nc1cccc(Cl)c1          -3.5
34         CCN(CC)CCOC(=O)C1(C2CCCCC2)CCCCC1         -6.41
35  Cn1c(=O)c2c(nc(SCCN3CCCCC3)n2Cc2ccc(Cl)cc2)n(C)c1=O            21
36          Cc1nc2sc3c(c2c(=O)o1)CC(C)(C)OC3           7.7
37                    Nc1ccc2c(c1)N1CCN=C1S2        -0.159
38       O=C(c1coc(=O)c(Br)c1)N1CCCc2ccccc21          3.42
39  CC(O)c1n(C)c(Cl)c[n+]1C (stereo unspecified)          18.6
40  O=c1c(C=NCCCn2ccnc2)c(-c2ccccc2)[nH]n1-c1nc2ccccc2s1          25.8
41               CN(C)C/C(Cl)=C(\Cl)c1ccccc1          4.25
42    COc1nc(NS(=O)(=O)c2ccc(C)cc2)nc(C)c1Cl          1.48
43  CCOC(=O)CSc1nc(N)c(C#N)c(-c2ccc(OC)cc2)c1C#N          24.7
44    Cc1ccc(-c2ccc(/C=N/c3ncn[nH]3)o2)cc1Cl          4.72
45  COC(=O)c1[nH]c(C)c(/C(O)=C2\C(=O)C(=O)N(CCN3CCOCC3)C2c2cccnc2)c1C (stereo unspecified)         -3.95

---

Target: Alpha-2C adrenergic receptor (Homo sapiens) (UniProt P18825)
Sequence (P18825 whole entry, looked up): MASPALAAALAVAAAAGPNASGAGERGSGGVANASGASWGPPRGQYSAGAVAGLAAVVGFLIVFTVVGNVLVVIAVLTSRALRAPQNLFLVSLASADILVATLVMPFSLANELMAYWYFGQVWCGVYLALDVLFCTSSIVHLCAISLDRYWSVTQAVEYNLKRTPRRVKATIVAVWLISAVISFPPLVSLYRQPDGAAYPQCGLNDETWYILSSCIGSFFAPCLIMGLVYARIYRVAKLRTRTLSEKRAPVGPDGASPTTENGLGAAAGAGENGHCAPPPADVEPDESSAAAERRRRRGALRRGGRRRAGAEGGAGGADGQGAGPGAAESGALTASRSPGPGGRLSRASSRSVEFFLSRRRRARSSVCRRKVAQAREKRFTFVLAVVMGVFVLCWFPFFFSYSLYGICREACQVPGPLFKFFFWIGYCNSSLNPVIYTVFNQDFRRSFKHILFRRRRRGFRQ
Test: modulators of alpha2C/GIRK thallium flux, primary screen, cell-based, HEK293 alpha2C/GIRK1/2 (AID 624);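 note: slope of fluorescence ratio to pre-addition baseline per second over 15 to 24 s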
Settings: thallium flux BTC fluorescence, at 10 µM, actives lie on both sides
Entry flag: Satisfied if slope reaches 0.006; Not satisfied if it does not.

In [3]: df
Out[3]:
                                   compound    group_label
0  CN1C2C=C3C(C#N)=C(N)C(C#N)(C#N)[C@@H](c4ccsc4)[C@@H]3C1CC2 (stereo partly specified)      Satisfied
1     CC(=O)c1cc(C#N)c(SCC(=O)C(C)(C)C)nc1C      Satisfied
2          CCOc1nc(SCCOc2ccccc2)nc(N(C)C)n1  Not satisfied
3                Brc1ccc(-c2cnc3n2CCCC3)cc1  Not satisfied
4          N#Cc1c(-c2ccccc2Cl)cc(C2CC2)nc1N      Satisfied
5  CCCCC[C@H](O)/C=C/[C@H]1C=CC(=O)[C@@H]1C/C=C\CCCC(=O)O      Satisfied

---

Molecular target: Voltage-gated potassium channel subunit beta-2 (Rattus norvegicus)
Experiment: KvBeta positive modulators, primary screen, biochemical, NADPH fluorescence (AID 623);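 note: fluorescence intensity change per second fitted from 20 to 320 s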
Conditions: Recombinant KvBeta, NADPH fluorescence decrease slope, 10 min; at 10 µM; hits give low values
Active and inactive are the calls of the source.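 How the source made its calls: active means NADPH fluorescence slope more negative than the mean of all samples by about 3 SD, 99.7% confidence; inactive means the rest.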
NADPH fluorescence slope values for the compounds below.

COMPOUND	TESTED ON	NADPH fluorescence slope
Cc1c(C2Nc3ccccc3NC3=C2C(=O)CC(C)(C)C3)cnn1C (configuration not stated)	Voltage-gated potassium channel subunit beta-2 (Rattus norvegicus)	-2.1e-05 (inactive)
COc1ccc(-c2nnc3sc(-c4c(OC)cccc4OC)nn23)cc1	Voltage-gated potassium channel subunit beta-2 (Rattus norvegicus)	-0.000139 (inactive)
Oc1ccc2c(c1)C1CCCC1(N1CCOCC1)O2 (configuration not stated)	Voltage-gated potassium channel subunit beta-2 (Rattus norvegicus)	-0.000124 (inactive)
CCOC(=O)COc1ccc(Oc2nc(C)cc(OC)n2)nn1	Voltage-gated potassium channel subunit beta-2 (Rattus norvegicus)	-8.4e-05 (inactive)
Cc1cc(C)nc(NC(=O)c2ccc(OC(C)C)cc2)n1	Voltage-gated potassium channel subunit beta-2 (Rattus norvegicus)	-4.9e-05 (inactive)
CC1CN(C2CCN(C(=O)COc3ccccc3)CC2)CC(C)O1 (configuration not stated)	Voltage-gated potassium channel subunit beta-2 (Rattus norvegicus)	-1.3e-05 (inactive)
C/C(=N\O)c1ccc2[nH]ccc2c1	Voltage-gated potassium channel subunit beta-2 (Rattus norvegicus)	-3.6e-05 (inactive)
Cc1nc(SC2C=CS(=O)(=O)C2)n[nH]1 (configuration not stated)	Voltage-gated potassium channel subunit beta-2 (Rattus norvegicus)	-0.000222 (inactive)
Cn1c2ccccc2c2nn(-c3ccccc3)c(=O)cc21	Voltage-gated potassium channel subunit beta-2 (Rattus norvegicus)	-0.000115 (inactive)
COc1cccc(-c2nc(NC(C)C)c3ccccc3n2)c1O	Voltage-gated potassium channel subunit beta-2 (Rattus norvegicus)	-0.000146 (inactive)
C=CCNc1nnc(SC2CC(=O)N(c3ccc(OC)cc3)C2=O)s1 (configuration not stated)	Voltage-gated potassium channel subunit beta-2 (Rattus norvegicus)	-3.8e-05 (inactive)
CCCc1c(OCCCCc2nn[nH]n2)ccc(C(C)=O)c1O	Voltage-gated potassium channel subunit beta-2 (Rattus norvegicus)	-4e-05 (inactive)
O=[N+]([O-])c1cccc2cn[nH]c12	Voltage-gated potassium channel subunit beta-2 (Rattus norvegicus)	-7.3e-05 (inactive)
CC1(C)CC(=O)C2=C(C1)OC(N)=C(C#N)[C@@]21C(=O)N(CC(N)=O)c2ccccc21	Voltage-gated potassium channel subunit beta-2 (Rattus norvegicus)	-2e-05 (inactive)
CCOC(=O)c1cnc(SC2CC(=O)N(c3cccc(OC)c3)C2=O)nc1N (configuration not stated)	Voltage-gated potassium channel subunit beta-2 (Rattus norvegicus)	-9.7e-06 (inactive)
CCOC(=O)NC(O)C(=O)c1cccs1 (configuration not stated)	Voltage-gated potassium channel subunit beta-2 (Rattus norvegicus)	-0.000158 (inactive)
CCOC(=O)CCC(=O)O[C@H]1[C@H](O[C@@H]2[C@@H](C)[C@H](O[C@H]3C[C@@](C)(OC)[C@@H](O)[C@H](C)O3)[C@@H](C)C(=O)O[C@H](CC)[C@@](C)(O)[C@H](O)[C@@H](C)C(=O)[C@H](C)C[C@@]2(C)O)O[C@H](C)C[C@@H]1N(C)C	Voltage-gated potassium channel subunit beta-2 (Rattus norvegicus)	-5.4e-05 (inactive)
CCOC(=O)c1c(NC(=O)CCN2CCOCC2)sc2c1CC(C)(C)OC2	Voltage-gated potassium channel subunit beta-2 (Rattus norvegicus)	-3e-05 (inactive)
Cc1nc2sc3c(c2c(=O)o1)CC(C)(C)OC3	Voltage-gated potassium channel subunit beta-2 (Rattus norvegicus)	-1.1e-05 (inactive)
Cn1c(=O)c2c(nc(SCCN3CCCCC3)n2Cc2ccc(Cl)cc2)n(C)c1=O	Voltage-gated potassium channel subunit beta-2 (Rattus norvegicus)	-1.5e-05 (inactive)
COc1cccc(Cn2c(OCC3CCCO3)nc3c2c(=O)n(C)c(=O)n3C)c1 (configuration not stated)	Voltage-gated potassium channel subunit beta-2 (Rattus norvegicus)	-2.5e-05 (inactive)
CC(C(=O)N1CCCCC1)N1C(=O)c2ccccc2C1=O (configuration not stated)	Voltage-gated potassium channel subunit beta-2 (Rattus norvegicus)	-0.000116 (inactive)
